Where do the numbers come from? From PubChem BioAssay AID1851.

I'd be grateful if you could share measured activity, negative = inhibition for these entries.
# targetOrSystem: Cytochrome P450 1A2 (Homo sapiens) (UniProt P05177)
# Sequence (P05177 whole entry, looked up): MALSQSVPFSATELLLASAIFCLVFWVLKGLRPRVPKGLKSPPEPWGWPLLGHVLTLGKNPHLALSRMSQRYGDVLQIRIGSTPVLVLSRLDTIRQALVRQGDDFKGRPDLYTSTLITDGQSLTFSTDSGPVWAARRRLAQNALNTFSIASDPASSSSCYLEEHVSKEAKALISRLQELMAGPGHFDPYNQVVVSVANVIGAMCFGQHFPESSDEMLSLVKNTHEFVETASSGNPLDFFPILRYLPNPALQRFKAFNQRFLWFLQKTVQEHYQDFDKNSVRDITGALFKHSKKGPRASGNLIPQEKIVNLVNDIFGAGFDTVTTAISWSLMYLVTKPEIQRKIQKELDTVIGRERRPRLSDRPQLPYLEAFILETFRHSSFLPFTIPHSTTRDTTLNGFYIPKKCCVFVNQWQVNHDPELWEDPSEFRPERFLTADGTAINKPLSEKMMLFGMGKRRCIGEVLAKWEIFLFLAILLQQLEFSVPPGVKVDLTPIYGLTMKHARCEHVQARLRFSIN
# assay: Cytochrome panel assay with activity outcomes; further: on the % scale 0 is the no-effect control and ±100 the full control effect
# statedConditions: recombinant CYP, pro-luciferin dealkylation, luminescence, p450-cyp1a2; series mostly up to 57.1 µM
Out of some 16,000 compounds screened, about 5,700 (36%) were called active. Roughly 24% stayed inconclusive and do not appear here. The list shows a part of the results.

Query (compound): COC(=O)C/C=C\[C@@H](C)[C@@H](/C=N\O[C@@H](C)CN1CCCc2nc(C)c(C)cc21)NS(=O)(=O)c1ccc(C)cc1 ; field requested: activity, negative = inhibition
-5.78% [at 11.4 µM] (inactive)

Try the compound O=C(O)[C@@H]1[C@@H]2C[C@H]([C@@H](Br)[C@H]2N2C(=O)CCC2=O)[C@@H]1C(=O)O
-15.8% [at 2.29 µM] (inactive)

Try the compound Oc1cc(CN2COc3ccccc32)c(O)cc1CNC1CCCCC1
-14.2% [at 11.4 µM] (inactive)

Try the compound C[N@+]1(CCC(=O)c2ccccc2)CC[C@H]2CC[C@H](C2)C1
-19% [at 11.4 µM] (inactive)

Try the compound O=S(=O)(O)[C@@H](CO)c1ccccc1 (tested in a mixture with another compound)
-1.9% [at 2.29 µM] (inactive)

Try the compound c1cc(NNc2cccc(-c3nn[nH]n3)c2)cc(-c2nn[nH]n2)c1
-15.5% [at 2.29 µM] (inactive)

Try the compound C[C@@H](CS(=O)(=O)Cc1ccccc1)C(N)=O
-13.3% [at 11.4 µM] (inactive)

Try the compound Cc1ccc(C(N)=Nc2ccccc2)cc1
-14.7% [at 11.4 µM] (inactive)

Try the compound CC[C@](N)(C(=O)O)C(C)C
-14.6% [at 11.4 µM] (inactive)

Try the compound Cc1ccc(S(=O)(=O)N[C@@H](CCc2ccccc2)CC(=O)C(C)(C)C)cc1
2.3% [at 11.4 µM] (inactive)

Try the compound O=C1O[C@@H]([C@H](O)[C@H](O)[C@H](O)CO)[C@@H](O)[C@@H]1O
-12.7% [at 11.4 µM] (inactive)

Try the compound O=P(O)(O)O[C@@H]1O[C@H](CO)[C@@H](O)[C@H](O)[C@@H]1O
-16.5% [at 11.4 µM] (inactive)
